B1: Proto-oncogene vav, residues 782 to 842; numbered along this chain, P15498 (parent)
chain: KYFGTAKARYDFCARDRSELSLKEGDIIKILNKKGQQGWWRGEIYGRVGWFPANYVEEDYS

Variants of: B1
Experiment: abundance fitness (aPCA) (normalised: wild type 0, dead -1); higher = more abundant; growth selection in yeast, the domain comes from the species named
Conditions: Homo sapiens
# binarize abundance fitness: threshold -0.5 inclusive, high side Satisfied, low side Not satisfied

Some entries whose results are on file:
Input: I'd appreciate it if you could say whether KYFGTAKARYDFCARDRSELSLKEGDIIKICNKKGQQGWWRGEIYGRVGWFPANYVEEDYS has abundance fitness at least equal to -0.5.
Output: Satisfied

Input: Item KYFGTAKARYDFCARDRSELSLKEGDIIKILNKKGQQGWWRGEIYGRVGWFPANYVEEDYA with abundance fitness of -0.5 or above?
Output: Satisfied

Input: Item KYFGTAKARYDKCARDRSELSLKEGDIIKILNKKGQQGWWRGEIYGRVGWFPANYVEEDYS with abundance fitness of -0.5 or above?
Output: Not satisfied

Input: Determine whether measured abundance fitness meets or exceeds -0.5 for KYFGTAKARYDFCARDRSELSLKEGDIIKILNKKHQQGWWRGEIYGRVGWFPANYVEEDYS
Output: Satisfied

Input: Check this variant for abundance fitness at or above -0.5: KYFGTAKARYDFCARDRSELSLKEGDIPKILNKKGQQGWWRGEIYGRVGWFPANYVEEDYS
Output: Not satisfied

Continuing:
Input: Could you tell me if the measured abundance fitness of KYFGTAVARYDFCARDRSELSLKEGDIIKILNKKGQQGWWRGEIYGRVGWFPANYVEEDYS reaches -0.5 or more?
Output: Satisfied

Input: Check this variant for abundance fitness at or above -0.5: KYFLTAKARYDFCARDRSELSLKEGDIIKILNKKGQQGWWRGEIYGRVGWFPANYVEEDYS
Output: Satisfied

Input: Is reported abundance fitness greater than or equal to -0.5 here: KYFGTAKARYDFCARDRSELSLKEGDIIKILNKKGQQGWWRGEIYGRVRWFPANYVEEDYS
Output: Not satisfied

Input: Is the recorded value of abundance fitness equal to or greater than -0.5 for this variant? KYFGTAKACYDFCARDRSELSLKEGDIIKILNKKGQQGWWRGEIYGRVGWFPANYVEEDYS
Output: Satisfied

Input: Does abundance fitness meet or surpass -0.5 for KYFGTAKARYDFCARDRSELSLKEGDIIKILNQKGQQGWWRGEIYGRVGWFPANYVEEDYS ?
Output: Satisfied
